- Study Target: thrombin (Bos taurus)
- Construct: purchased Mochida Pharmaceutical Co., Ltd
- Test Description: fibrinogen coagulation time
- Format: biochemical
- Experimental Conditions: bovine fibrinogen, thrombin 5 units/ml, borate saline buffer pH 7.4, 25° C; normal coagulation time 50-55 seconds
- Protocol: The measurement of the fibrinogen coagulation time was conducted as follows: Immediately after mixing, the reaction mixture was transferred from the ice bath to a bath maintained at 25° C. Coagulation times were taken as the period between the time of transference to the 25° C bath and the time of the first appearance of fibrin threads. […]
Quantity Name: Concentration required to prolong the coagulation time by a factor of two (µM)
Quick note: give the figure in µM, leave out the unit.

// CCCCN(CC(=O)O)C(=O)[C@H](CCCNC(=N)N)NS(=O)(=O)c1ccc2ccc(C)cc2c1 : Concentration required to prolong the coagulation time by a factor of two value = 0.3

// CCCCN(CC(=O)O)C(=O)[C@H](CCCNC(=N)N)NS(=O)(=O)c1cccc2c1CCCC2 : Concentration required to prolong the coagulation time by a factor of two value = 20

// Cc1ccc2ccc(S(=O)(=O)N[C@@H](CCCNC(=N)N)C(=O)N(CC(=O)O)CC3CCCCC3)cc2c1 : Concentration required to prolong the coagulation time by a factor of two value = 14

// COCCN(CC(=O)O)C(=O)[C@H](CCCNC(=N)N)NS(=O)(=O)c1cccc2cc(C)c(C)cc12 : Concentration required to prolong the coagulation time by a factor of two value = 10

---

Answer each item with its documented acute toxicity LD50.
- Tested on: mice
- Test Description: acute toxicity (LD50), intraperitoneal administration
- Type: in vivo
- Experimental Conditions: mice (male, 20 g)

// CCCCN(C)C(=O)[C@H](CCCNC(=N)N)NS(=O)(=O)c1cccc2c(N(C)C)cccc12 [reference compound] : acute toxicity LD50 value = 70 milligrams per kilogram

// CCCCNC(=O)[C@H](CCCNC(=N)N)NS(=O)(=O)c1cccc2c(N(C)C)cccc12 [N^2 -dansyl-N-butyl-L-argininamide, reference compound] : acute toxicity LD50 value = 75 milligrams per kilogram

---

- Study Target: thrombin (Bos taurus, UniProt P00735)
- Construct: purchased Mochida Pharmaceutical Co., Ltd
- Test Description: fibrinogen coagulation time
- Assay type: biochemical
- Experimental Conditions: bovine fibrinogen, thrombin 5 units/ml, borate saline buffer pH 7.4, 25° C; normal coagulation time 50-55 seconds
Answer each item with its documented Concentration required to prolong the coagulation time by a factor of two.
Quick note: give the figure in µM, leave out the unit.

// COCCN(CC(=O)O)C(=O)[C@H](CCCNC(=N)N)NS(=O)(=O)c1cccc2ccc(C)cc12 : Concentration required to prolong the coagulation time by a factor of two value = 20

// COCCN(CC(=O)O)C(=O)[C@H](CCCNC(=N)N)NS(=O)(=O)c1cccc2c1CCCC2 : Concentration required to prolong the coagulation time by a factor of two value = 10

// N=C(N)NCCC[C@H](NS(=O)(=O)c1ccc2c(c1)CCCC2)C(=O)N(CC(=O)O)Cc1ccccc1 : Concentration required to prolong the coagulation time by a factor of two value = 30

// COCCN(CC(=O)O)C(=O)[C@H](CCCNC(=N)N)NS(=O)(=O)c1ccc2ccc(C)cc2c1 : Concentration required to prolong the coagulation time by a factor of two value = 0.2

// CCCCN(CC(=O)O)C(=O)[C@H](CCCNC(=N)N)NS(=O)(=O)c1cccc2c(N(C)C)cccc12 : Concentration required to prolong the coagulation time by a factor of two value = 4
